Each entry below lists one item and its recorded van der Waals contact distance SER 657 atom C value.
molecular target: MASP-2 CCP2-SP (Homo sapiens (Human), UniProt O00187); assay: MASP-2 co-crystallization, X-ray crystallography and structure analysis (H-bonds, van der Waals contacts); settings: Table A2-14; MASP-2 SER 657 C; columns c12-c13 (inferred)
Sequence (O00187 445-686): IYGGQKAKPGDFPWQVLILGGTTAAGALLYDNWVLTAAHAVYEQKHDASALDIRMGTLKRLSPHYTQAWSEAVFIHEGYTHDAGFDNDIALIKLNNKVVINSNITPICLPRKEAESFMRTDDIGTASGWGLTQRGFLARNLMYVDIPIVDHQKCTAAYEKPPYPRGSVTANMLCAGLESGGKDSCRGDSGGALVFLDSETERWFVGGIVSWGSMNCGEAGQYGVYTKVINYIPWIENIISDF
Sequence (O00187 364-432 partner): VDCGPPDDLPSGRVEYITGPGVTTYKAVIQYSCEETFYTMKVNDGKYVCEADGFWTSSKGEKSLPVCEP
Structures can show the parent of a compound that is named as a salt.
API note: the answer field is a bare number with no unit suffix.

Worked examples, 4 molecules total:
>  <MOLECULE>
C[C@H](NC(=O)[C@H](N)C1Cc2ccccc2C1)C(=O)NCc1ccc2c(N)nccc2c1 [compound 1088, Dihydrochloride]

>  <SYSTEM NAME>
MASP-2 CCP2-SP (Homo sapiens (Human), UniProt O00187)

>  <VALUE OBSERVED>
3.64

$$$$
>  <MOLECULE>
C[C@H](NC(=O)[C@H]1C[C@H](c2ccccc2)CN1)C(=O)NCc1ccc2c(N)nccc2c1

>  <SYSTEM NAME>
MASP-2 CCP2-SP (Homo sapiens (Human), UniProt O00187)

>  <VALUE OBSERVED>
3.7

$$$$
>  <MOLECULE>
C[C@H](NC(=O)[C@H](N)CCc1cc(Cl)cc(Cl)c1)C(=O)NCc1ccc(C(=N)N)cc1

>  <SYSTEM NAME>
MASP-2 CCP2-SP (Homo sapiens (Human), UniProt O00187)

>  <VALUE OBSERVED>
3.8

$$$$
>  <MOLECULE>
C[C@H](NC(=O)C1C[C@@H](c2ccccc2)CCN1)C(=O)NCc1ccc(C(=N)N)cc1 (stereo in doubt)

>  <SYSTEM NAME>
MASP-2 CCP2-SP (Homo sapiens (Human), UniProt O00187)

>  <VALUE OBSERVED>
3.75

$$$$

Challenge: Please state recorded van der Waals contact distance SER 657 atom C (tested on MASP-2 CCP2-SP (Homo sapiens (Human), UniProt O00187)) of `C[C@H](NC(=O)[C@H]1C[C@@H](c2ccccc2)CN1)C(=O)NCc1ccc(C(=N)N)cc1`
Response given: 3.73

Challenge: Write down the reported van der Waals contact distance SER 657 atom C of `C[C@H](NC(=O)[C@H](N)CCc1ccccc1)C(=O)NCc1ccc(C(=N)N)cc1` , test system: MASP-2 CCP2-SP (Homo sapiens (Human), UniProt O00187).
Response given: 3.77

Challenge: Field: van der Waals contact distance SER 657 atom C (MASP-2 CCP2-SP (Homo sapiens (Human), UniProt O00187)). Entry: `C[C@H](NC(=O)[C@H]1C[C@@H](c2ccccc2)CN1)C(=O)NCc1ccc2c(N)nccc2c1`
Response given: 3.86
